Reference source for all entries: patent US10544143B2

Exercise: for every item that follows, state its recorded IC50.
biological target: human TLR7 (Homo sapiens (Human)); experiment: TLR7 inhibition reporter assay (HEK-Blue SEAP); assay type: cell-based; settings: HEK-Blue cells overexpressing human TLR7, SEAP reporter, gardiquimod 7.5 μM
Numeric only. Scale: nM

INPUT: Which IC50 value belongs to COc1cc(-c2[nH]c3ccc(C4CC(NC5CCOCC5)C4)nc3c2C(C)C)cn2ncnc12 (centres unmarked) ?
OUTPUT: 3.1

INPUT: Try `CCCN1CCC(Oc2ccc3[nH]c(-c4cc(OC)c5ncnn5c4)c(C(C)C)c3n2)CC1` next.
OUTPUT: 1.4

INPUT: Also `Cc1cc(-c2[nH]c3ccc(CCN4CCCCC4)nc3c2C(C)C)cn2ncnc12` ?
OUTPUT: 104

INPUT: What do you have for CCN(CCS(C)(=O)=O)C1CCC(c2nc3c(C(C)C)c(-c4cn5ncnc5c(C)c4C)[nH]c3cc2F)CC1 (centres unmarked) [Example 510] ?
OUTPUT: 5.9

INPUT: Another molecule: Cc1c(-c2[nH]c3ccc(C4CCC(NC5(C)COC5)CC4)nc3c2C(C)C)cn2ncnc2c1C (centres unmarked) [Example 472]
OUTPUT: 0.34

INPUT: And then `COc1cc(-c2[nH]c3ccc(C4CCN(C5COC5)CC4)nc3c2C(C)C)cn2ncnc12` , what is it?
OUTPUT: 2

INPUT: Can you handle `Cc1c(-c2[nH]c3ccc(C4CCN(CC(=O)N(C)C)CC4)nc3c2C(C)C)cn(C)c(=O)c1C` next?
OUTPUT: 22

INPUT: Same question, `COc1cc(-c2[nH]c3ccc(OCC4CCN(CC(C)(C)O)CC4)nc3c2C(C)C)cn2ncnc12` this time
OUTPUT: 1.3

###

biological target: human TLR7 (Homo sapiens (Human), UniProt Q9NYK1); assay: TLR7 inhibition reporter assay (HEK-Blue SEAP); type: cell-based; details: HEK-Blue cells overexpressing human TLR7, SEAP reporter, gardiquimod 7.5 μM
Sequence (Q9NYK1 27-1049): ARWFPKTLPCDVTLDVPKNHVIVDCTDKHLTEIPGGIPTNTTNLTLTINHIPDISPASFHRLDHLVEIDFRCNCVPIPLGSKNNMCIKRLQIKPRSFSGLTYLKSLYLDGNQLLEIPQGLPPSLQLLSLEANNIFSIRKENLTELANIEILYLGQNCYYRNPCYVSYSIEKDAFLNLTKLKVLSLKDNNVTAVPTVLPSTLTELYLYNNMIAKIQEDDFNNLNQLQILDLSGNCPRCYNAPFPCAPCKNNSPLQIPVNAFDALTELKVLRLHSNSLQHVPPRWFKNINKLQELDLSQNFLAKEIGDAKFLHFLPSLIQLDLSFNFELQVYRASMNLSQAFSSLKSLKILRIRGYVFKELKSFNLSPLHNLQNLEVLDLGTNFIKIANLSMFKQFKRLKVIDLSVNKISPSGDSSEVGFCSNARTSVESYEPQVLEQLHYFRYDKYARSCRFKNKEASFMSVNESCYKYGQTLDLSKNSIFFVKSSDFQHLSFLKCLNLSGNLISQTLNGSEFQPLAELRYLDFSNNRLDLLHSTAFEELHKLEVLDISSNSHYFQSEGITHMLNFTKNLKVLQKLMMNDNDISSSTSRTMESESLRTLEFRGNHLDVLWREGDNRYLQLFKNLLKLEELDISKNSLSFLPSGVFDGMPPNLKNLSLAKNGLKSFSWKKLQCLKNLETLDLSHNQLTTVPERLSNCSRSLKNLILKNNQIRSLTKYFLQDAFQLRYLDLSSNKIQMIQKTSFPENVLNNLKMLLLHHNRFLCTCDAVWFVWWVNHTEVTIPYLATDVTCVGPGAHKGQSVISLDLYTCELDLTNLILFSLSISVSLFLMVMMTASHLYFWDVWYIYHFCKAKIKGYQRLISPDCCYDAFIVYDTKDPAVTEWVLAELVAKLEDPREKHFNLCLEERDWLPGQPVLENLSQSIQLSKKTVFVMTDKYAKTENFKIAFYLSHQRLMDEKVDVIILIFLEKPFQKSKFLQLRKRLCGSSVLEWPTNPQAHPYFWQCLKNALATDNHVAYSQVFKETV
Consider the cut-off 3 nM. If the recorded IC50 is strictly smaller, the label is 1 (yes); if not, the label is 0 (no).

INPUT: Report whether reported IC50 is lower than 3 nM (strictly) for `COc1cc(-c2[nH]c3ccc(OCC4CN(CC(C)(C)O)C4)nc3c2C(C)C)cn2ncnc12`
OUTPUT: 1 (yes)

INPUT: Please answer likewise for `Cc1c(-c2[nH]c3ccc(N4CC5(CNC5)C4)nc3c2C(C)C)cn2ncnc2c1C`
OUTPUT: 1 (yes)

INPUT: Now consider COc1cc(-c2[nH]c3ccc(C4CCC(NC5CCOCC5)C4)nc3c2C(C)C)cn2ncnc12 (centres unmarked) [Example 707] .
OUTPUT: 1 (yes)

INPUT: Likewise for `CNC(=O)CN1CCC(c2ccc3[nH]c(-c4cc(OC)c5ncnn5c4)c(C(C)C)c3n2)CC1` ?
OUTPUT: 1 (yes)

INPUT: Consider next the compound Cc1c(-c2[nH]c3ccc(C4CC(N)C4)nc3c2C(C)C)cn2ncnc2c1C (centres unmarked) in the same way.
OUTPUT: 0 (no)

INPUT: Consider next the compound `Cc1c(-c2[nH]c3ccc(C4CN(C(=O)CN(C)C)C4)nc3c2C(C)C)cn2ncnc2c1C` in the same way.
OUTPUT: 0 (no)

INPUT: Entry to check: Cc1cc(-c2[nH]c3ccc(C4CN(C5COC5)CCO4)nc3c2C(C)C)cn(C)c1=O (centres unmarked)
OUTPUT: 0 (no)

INPUT: Then COc1cc(-c2[nH]c3ccc(C4CCC(NC5COC5)C4)nc3c2C(C)C)cn2ncnc12 (centres unmarked) ?
OUTPUT: 1 (yes)

###

Kindly state pIC50 for each of the entries shown.
target: human TLR9 (Homo sapiens (Human), UniProt Q9NR96); assay: TLR9 inhibition reporter assay (HEK-Blue SEAP); conditions: read-out: TLR9 IC50; HEK-Blue cells overexpressing human TLR9, ODN2006 5 nM stimulation, SEAP reporter;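 further: SEAP driven by an IFN-β minimal promoter with NF-κB and AP-1 sites, read after 22 h, compounds dosed 0.05 nM–50 µM, inhibition scaled between agonist plus DMSO and reference-inhibitor wells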
Sequence (Q9NR96 26-1032): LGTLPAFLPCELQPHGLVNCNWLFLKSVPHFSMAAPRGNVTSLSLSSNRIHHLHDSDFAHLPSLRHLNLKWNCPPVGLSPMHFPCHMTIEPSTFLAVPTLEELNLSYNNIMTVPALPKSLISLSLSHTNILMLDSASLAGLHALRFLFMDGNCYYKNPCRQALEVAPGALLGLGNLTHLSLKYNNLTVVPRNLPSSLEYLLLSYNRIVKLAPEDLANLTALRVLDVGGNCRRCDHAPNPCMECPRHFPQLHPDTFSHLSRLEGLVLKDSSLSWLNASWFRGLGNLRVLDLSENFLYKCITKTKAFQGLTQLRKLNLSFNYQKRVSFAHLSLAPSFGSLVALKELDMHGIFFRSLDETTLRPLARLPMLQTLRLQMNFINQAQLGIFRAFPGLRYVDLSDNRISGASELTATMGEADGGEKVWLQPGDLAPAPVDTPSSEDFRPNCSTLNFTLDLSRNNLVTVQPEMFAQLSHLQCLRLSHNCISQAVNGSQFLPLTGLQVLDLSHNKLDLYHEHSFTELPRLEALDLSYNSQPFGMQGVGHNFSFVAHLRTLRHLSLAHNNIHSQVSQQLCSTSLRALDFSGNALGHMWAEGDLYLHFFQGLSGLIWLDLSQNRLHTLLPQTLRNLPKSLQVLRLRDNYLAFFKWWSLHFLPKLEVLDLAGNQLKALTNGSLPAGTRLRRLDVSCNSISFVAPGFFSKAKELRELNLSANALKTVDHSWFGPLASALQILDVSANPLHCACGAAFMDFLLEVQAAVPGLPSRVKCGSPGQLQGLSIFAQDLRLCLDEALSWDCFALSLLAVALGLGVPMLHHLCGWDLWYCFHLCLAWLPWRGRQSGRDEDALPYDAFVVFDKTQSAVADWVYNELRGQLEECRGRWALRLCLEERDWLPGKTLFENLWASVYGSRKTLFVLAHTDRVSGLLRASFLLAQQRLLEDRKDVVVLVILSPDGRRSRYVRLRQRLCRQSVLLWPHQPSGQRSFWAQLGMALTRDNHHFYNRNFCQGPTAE
# pIC50: negative log10 of molar concentration; output just the value

INPUT: Tell me the measured pIC50 of COc1cc(-c2[nH]c3ccc(C4CCC(N(C)C)CC4)nc3c2C(C)C)cn2ncnc12 (stereo not shown) [Example 177] , please.
OUTPUT: 6.83

INPUT: Then Cc1c(-c2[nH]c3ccc(N4CC(NC(=O)CN(C)C)C4)nc3c2C(C)C)cn2ncnc2c1C [Example 15] ?
OUTPUT: 5.71

INPUT: Request: CC(C)c1c(-c2cn(C)c3ncccc23)[nH]c2ccc(C3CCC(NCC4(S(C)(=O)=O)CC4)CC3)nc12 (stereo not shown) [Example 238]
OUTPUT: 6.53

INPUT: Please answer likewise for Cc1cc(-c2[nH]c3ccc(C4CCC(N5CC6(COC6)C5)CC4)nc3c2C(C)C)cc(C)n1 (stereo not shown) [Example 283]
OUTPUT: 6.53

###

molecular target: UniProt Q9NR96; assay: TLR9 inhibition reporter assay (HEK-Blue SEAP); settings: read-out: TLR9 IC50; HEK-Blue cells overexpressing human TLR9, ODN2006 5 nM stimulation, SEAP reporter
pIC50: −log10 of the molar value.
Assign fulfilled whenever pIC50 does not fall below 6; assign not fulfilled whenever it does.

INPUT: Is it the case that COc1cc(-c2[nH]c3cc(C)c(C4CCC(N(C)CCC#N)CC4)nc3c2C(C)C)cn2ncnc12 (stereo not shown) [Example 339] has pIC50 reaching or exceeding 6?
OUTPUT: not fulfilled

INPUT: # repeat for COc1cc(-c2[nH]c3cc(C)c(C4CCC(NCC5(C)COC5)CC4)nc3c2C(C)C)cn2ncnc12 (stereo not shown) [Example 312]
OUTPUT: fulfilled

INPUT: Moving on to Cc1cc(-c2[nH]c3ccc(C4CCC(NC5COC5)CC4)nc3c2C(C)C)cc(C)n1 (stereo not shown) [Example 287]
OUTPUT: not fulfilled

INPUT: Now this one: `Cc1c(-c2[nH]c3ccc(N4CCN(CCCS(C)(=O)=O)CC4)nc3c2C(C)C)cn2ncnc2c1C`
OUTPUT: not fulfilled

INPUT: Then what about the compound Cc1c(-c2[nH]c3ccc(C4CCC(N(C)C5COC5)CC4)nc3c2C(C)C)cn(C)c(=O)c1C (stereo not shown) [Example 254] ?
OUTPUT: not fulfilled

INPUT: Also COc1cc(-c2[nH]c3ccc(C4CCC(N(C)C5CC5)CC4)nc3c2C(C)C)cn2ncnc12 (stereo not shown) [Example 172] , if possible.
OUTPUT: not fulfilled

###

biological target: human TLR7 (Homo sapiens (Human), UniProt Q9NYK1); test: TLR7 inhibition reporter assay (HEK-Blue SEAP); type: cell-based; conditions: HEK-Blue cells overexpressing human TLR7, gardiquimod 7.5 μM stimulation, SEAP reporter
recorded metric: pIC50
Answer as the number alone; pIC50 is minus log10 of concentration in mol/L.

INPUT: What value of measured pIC50 is listed for `CC(C)c1c(-c2cc(CO)c3ncnn3c2)[nH]c2ccc(N3CCC(NCC4(C)COC4)CC3)nc12` ?
OUTPUT: 9.11

INPUT: Ok, now `Cc1c(-c2[nH]c3ccc(N4CC(N(C)C)C4)nc3c2C(C)C)cn2ncnc2c1C`
OUTPUT: 8.00

INPUT: Same question for CNC(=O)CN(C)C1CCC(c2ccc3[nH]c(-c4cc(OC)c5ncnn5c4)c(C(C)C)c3n2)CC1 (stereo not shown) [Example 227] please.
OUTPUT: 8.70

INPUT: Next molecule up: CC(C)c1c(-c2cc(CO)c3ncnn3c2)[nH]c2ccc(C3CCC(N(C)Cc4ccc(F)cc4)CC3)nc12 (stereo not shown)
OUTPUT: 7.89

###

Kindly supply the reported IC50 values for the records listed here.
target: UniProt:Q9NYK1; assay: TLR7 inhibition reporter assay (HEK-Blue SEAP); assay type: cell-based; details: HEK-Blue human TLR7 cells, gardiquimod 7.5 μM

INPUT: # lookup: IC50 of `Cc1c(-c2[nH]c3ccc(N4CCN(C(=O)CN(C)C)C[C@H]4C)nc3c2C(C)C)cn2ncnc2c1C`
OUTPUT: 0.19 nM

INPUT: Another compound to check: Cc1c(-c2[nH]c3ccc(C4CCC(N5CC(O)C5)CC4)nc3c2C(C)C)cn2ncnc2c1C (centres unmarked) [Example 1046]
OUTPUT: 0.64 nM

INPUT: Repeat with [2H]C([2H])([2H])N(C([2H])([2H])[2H])C([2H])([2H])C(=O)N1CCN(c2ccc3[nH]c(-c4cn5ncnc5c(C)c4C)c(C(C)C)c3n2)CC1 (single isomer, unassigned)
OUTPUT: 1.2 nM

INPUT: And then `CCCN(C)CC(=O)N1C[C@H](C)N(c2ccc3[nH]c(-c4cn5ncnc5c(C)c4C)c(C(C)C)c3n2)C[C@H]1C` , what is it?
OUTPUT: 0.37 nM

INPUT: Follow-up entry: `Cc1c(-c2[nH]c3ccc(N4CCN(C(=O)CN5CC6(COC6)C5)C[C@H]4C)nc3c2C(C)C)cn2ncnc2c1C`
OUTPUT: 2.5 nM

INPUT: Quick one: `Cc1c(-c2[nH]c3ccc(N4CC5(C4)CN(C4CCOCC4)C5)nc3c2C(C)C)cn2ncnc2c1C`
OUTPUT: 0.59 nM

INPUT: // query: Cc1c(-c2[nH]c3ccc(N4C[C@@H](C)N(C(=O)CCN5CCC(F)C5)C[C@@H]4C)nc3c2C(C)C)cn2ncnc2c1C (some centres unmarked)
OUTPUT: 0.54 nM

INPUT: Quick one: `Cc1c(-c2[nH]c3ccc(N4CCN(CCS(C)(=O)=O)C[C@@H]4C)nc3c2C(C)C)cn2ncnc2c1C`
OUTPUT: 2.1 nM

INPUT: And for `Cc1c(-c2[nH]c3ccc(N4CCN[C@H](C)C4)nc3c2C(C)C)cn2ncnc2c1C` ?
OUTPUT: 1.1 nM

INPUT: Okay, and `Cc1c(-c2[nH]c3ccc([C@H]4CC[C@@H](N5CC6(C5)CS(=O)(=O)C6)CC4)nc3c2C(C)C)cn2ncnc2c1C` ?
OUTPUT: 2.5 nM

INPUT: Let us now turn to `Cc1c(-c2[nH]c3ccc(N4[C@@H](C)CNC[C@@H]4C)nc3c2C(C)C)cn2ncnc2c1C`
OUTPUT: 1.3 nM

INPUT: Please give the result for `Cc1c(-c2[nH]c3ccc(N4[C@@H]5CC[C@H]4CN(C(=O)CN(CCO)C(C)(C)C)C5)nc3c2C(C)C)cn2ncnc2c1C` too.
OUTPUT: 0.79 nM

INPUT: Another compound to check: `Cc1c(-c2[nH]c3ccc(N4CCN(C(=O)CN(CC(C)C)C(C)C)CC4)nc3c2C(C)C)cn2ncnc2c1C`
OUTPUT: 6.4 nM

INPUT: Repeat for the following compound: `Cc1c(-c2[nH]c3ccc(N4CCN(C(C)C)C[C@@H]4C)nc3c2C(C)C)cn2ncnc2c1C`
OUTPUT: 1.7 nM

INPUT: Ok, now [2H]C([2H])(C(=O)N1C([2H])([2H])C([2H])([2H])N(c2ccc3[nH]c(-c4cn5ncnc5c(C)c4C)c(C(C)C)c3n2)C([2H])([2H])C1([2H])[2H])N(C)C (single isomer, unassigned)
OUTPUT: 1.8 nM

INPUT: Further, for `Cc1c(-c2[nH]c3ccc(N4CCN(C(=O)CN5CC6(C5)CS(=O)(=O)C6)CC4)nc3c2C(C)C)cn2ncnc2c1C` ?
OUTPUT: 6.5 nM

INPUT: Now give it for `Cc1c(-c2[nH]c3ccc(N4CC5(CN(CC(C)(C)C)C5)C4)nc3c2C(C)C)cn2ncnc2c1C` too.
OUTPUT: 3.6 nM

INPUT: Another compound to look at: `Cc1c(-c2[nH]c3ccc(NCCNC(=O)CN(C)C)nc3c2C(C)C)cn2ncnc2c1C`
OUTPUT: 10 nM

INPUT: Also CCN(C1CCC(c2ccc3[nH]c(-c4cn5ncnc5c(C)c4C)c(C(C)C)c3n2)CC1)C1COC1 (centres unmarked) [Example 1038] , if possible.
OUTPUT: 0.98 nM

INPUT: Would you kindly repeat that for `Cc1c(-c2[nH]c3ccc(N4C[C@H](C)N(CCCS(C)(=O)=O)C[C@@H]4C)nc3c2C(C)C)cn2ncnc2c1C` ?
OUTPUT: 12 nM

INPUT: Param item: `Cc1c(-c2[nH]c3ccc(C4CC5(C4)CN(C4CCOCC4)C5)nc3c2C(C)C)cn2ncnc2c1C`
OUTPUT: 1.8 nM

INPUT: Try the compound `Cc1c(-c2[nH]c3ccc(N4C[C@@H](C)N(CCC(N)=O)C[C@H]4C)nc3c2C(C)C)cn2ncnc2c1C`
OUTPUT: 4.2 nM

INPUT: Further, for `[2H]C([2H])([2H])N(CCC(=O)N1C[C@H](C)N(c2ccc3[nH]c(-c4cn5ncnc5c(C)c4C)c(C(C)C)c3n2)C[C@H]1C)C([2H])([2H])[2H]` ?
OUTPUT: 0.39 nM

INPUT: Would you mind doing `Cc1c(-c2[nH]c3ccc(N4CCN(C(=O)CN5CCC(CO)CC5)CC4)nc3c2C(C)C)cn2ncnc2c1C` as well?
OUTPUT: 3 nM

INPUT: Another compound to check: `Cc1c(-c2[nH]c3ccc(N4CCN(CCC(N)=O)[C@H](C)C4)nc3c2C(C)C)cn2ncnc2c1C`
OUTPUT: 5.2 nM

INPUT: Next record, please: `CCN(C)CC(=O)N1C[C@H]2CC[C@@H](C1)N2c1ccc2[nH]c(-c3cn4ncnc4c(C)c3C)c(C(C)C)c2n1`
OUTPUT: 0.55 nM
